Answer each item with its documented koff.
- target.or.test.system: Recombinant A/South Carolina/1/1918 virus HA (influenza A/South Carolina/1/1918 …, UniProt Q9WFX3 18-520)
- Sequence (Q9WFX3 18-520 limits assumed): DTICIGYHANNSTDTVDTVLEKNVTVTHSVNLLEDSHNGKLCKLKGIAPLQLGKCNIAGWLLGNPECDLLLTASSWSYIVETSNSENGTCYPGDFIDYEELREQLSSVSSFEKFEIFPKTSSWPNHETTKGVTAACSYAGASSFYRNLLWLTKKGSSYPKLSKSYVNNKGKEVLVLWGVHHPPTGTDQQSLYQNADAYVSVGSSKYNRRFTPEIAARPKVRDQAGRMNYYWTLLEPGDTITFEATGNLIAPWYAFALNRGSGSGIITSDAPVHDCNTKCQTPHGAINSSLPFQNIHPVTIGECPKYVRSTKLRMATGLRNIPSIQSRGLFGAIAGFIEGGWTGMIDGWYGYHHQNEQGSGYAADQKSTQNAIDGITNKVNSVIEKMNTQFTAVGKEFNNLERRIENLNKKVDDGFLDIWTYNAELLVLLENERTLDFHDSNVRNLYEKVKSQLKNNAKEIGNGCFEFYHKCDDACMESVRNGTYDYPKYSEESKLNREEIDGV
Answers are plain numbers, in s⁻¹.

These recorded examples may help you get a feel for the data.
1) mAb 2B12 (antibody, V domains shown) VH: EVQLQESGPGLVKPSQTLSLTCNVSGGSITGDYKWSWIRQPPGKGLEWIGHIHSTGTTYYNPSLRSRITISMDTSKNNLSLRLTSVTAADTAVYYCASHTLTSGHYPRDFDFWGQGTLVTVSS VL: SYVLTQPPSVSGTPGQRVIISCSGYSSNIGSNTVNWYQQFPGTAPRLLIYANNQRPPGVPDRFSGSKSGTSASLAISGLQSDDESDYYCAAWDDSLNGHWVFGGGTKLTVLG : 0.00012
2) mAb 1I20 (antibody, V domains shown) VH: EVQLVESGGGVVQPGGSLRLSCIASAFNLGIFGMHWVRQAPGKGLEWVAFIRYDGGKTFYADSVKGRFTISRDNSKNTLYLQMNSLRTEDTALYYCARDATADYYGPGSYPNWLDPWGQGTLVTVS VL: DIRLTQSPATLSVSPGERATLSCRASHSVSRNLAWYQQKPGRAPRLLVYDTSSRATGIPARFSGSGSGTEFTLTISSLQSEDFAVYYCQQYNNWPRTFGQGTKVDIK : 1.4e-05
3) mAb 4D20 (antibody, V domains shown) VH: EVQLVESGPVLVKPTETLTVTCTVSGFSVDNDRMGVSWIRQPPGKALEWLAHIFSNDEKSYSTSLRSRLTISKDTSKRQVVLSMTDMDPVDTATYYCARAPSEYAAMDVWGQGTMVTVS VL: SYVLTQPPSVSVAPGETATVTCGGNNIGSKSVHWYQQKPGQAPVVVIYYDGDRPSGIPERFSGSNSGDTATLTISRVEAGDEADYYCLVWDYTSVHYVFGTGTKVTVLG : 1e-05

Shift focus to the following entry.
According to the records, this binder mAb 1F1 (antibody, V domains shown) VH: EVQLVQSGGGVVQPRRSLRLSCAASGFTFSSYAMHWVRQAPGKGLEWVAVISYDGRNKYYADSVKGRFTVSRDNSKNTLYLQMNSLRAEDTSVYYCARELLMDYYDHIGYSPGPTWGQGTLVTVSS VL: QPVLTQPPSASGSPGQRVTISCSGSSSNIGSYTVNWYQQLPGTAPKLLIYSLNQRPSGVPDRFSGSKSGTSASLAISGLQSEDEAVYYCAAWDDSLSAHVVFGGGTKLTVLG displays koff of 0.00017
